A collection of compounds and their measured growth inhibition
Assay: NCI Yeast Anticancer Drug Screen. Data for the mlh1 rad18 strain (AID 175)
Settings: S. cerevisiae mlh1 rad18 strain growth inhibition; at 50.0 µM; stronger effect = higher value
Compounds without any hit were thinned out: in the full panel of roughly 79,000, 15% have a hit.

COMPOUND: O=C(N=c1nc(NC(=O)c2ccccc2)ss1)c1ccccc1
growth inhibition (%): 13.2
//
COMPOUND: C[C@H](CCC(=O)O[C@@H]1CC[C@@]2(C)C(CC[C@H]3[C@@H]4CC[C@H]([C@H](C)CCc5nc6ccccc6[nH]5)[C@@]4(C)CC[C@@H]32)C1)[C@H]1CC[C@H]2[C@@H]3CCC4C[C@H](O)CC[C@]4(C)[C@H]3CC[C@]12C (some centres undefined)
growth inhibition (%): -6.05
//
COMPOUND: C/C(O)=C(/C=N/C(N)=S)C(N)=O
growth inhibition (%): 15.5
//
COMPOUND: CCN(CC)C1CS(=O)(=O)OC2=C1CSCC2 (centres undefined)
growth inhibition (%): -31.5

---

Experiment: NCI Yeast Anticancer Drug Screen. Data for the rad50 strain (AID 155);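 also: 0% = growth of vehicle-only cultures of the same strain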
Conditions: S. cerevisiae rad50 strain growth inhibition; at 50.0 µM
This is part of a sample that, as a whole, favours compounds with a hit. Of some 79,000 tested, about 15% had one in any assay. Calls of active or inactive are those of the source. Cut-off read from the data, not from the text of the source: active = growth inhibition above about 70%; inactive = the rest.
Labels: Y for active, N for inactive

MOLECULE: CC(CCCSC(=N)N)SC(=N)N (stereo not drawn)
CLASSIFICATION: N

MOLECULE: Cc1ccc(S(=O)(=O)Oc2nc3nc4ccccc4nc3nc2OS(=O)(=O)c2ccc(C)cc2)cc1
CLASSIFICATION: N

MOLECULE: CN(Cc1cnc2nc(N)nc(N)c2n1)c1ccc(C(=O)NC(CCC(=O)NC(CCC(=O)NC(CCC(=O)NC(CCC(=O)O)C(=O)O)C(=O)O)C(=O)O)C(=O)O)cc1 (stereo not drawn)
CLASSIFICATION: N

MOLECULE: CNC(=O)Sc1ccc(C)c([N+](C)(C)C)c1
CLASSIFICATION: N

MOLECULE: O=C(O)c1ccc([N+](=O)[O-])cc1OCc1ccccc1
CLASSIFICATION: N

MOLECULE: COc1ccc(C2OC3=C(Nc4ccc([N+](=O)[O-])cc4N3)C2=O)cc1OC (stereo not drawn)
CLASSIFICATION: N

MOLECULE: COc1ccc2[nH]c(C)cc2c1CN
CLASSIFICATION: N

MOLECULE: COc1cc(OC)c(OCc2ccccc2)c(OC)c1
CLASSIFICATION: N

MOLECULE: O=C1c2ccccc2C(=O)N1CNc1cccc(Cl)c1
CLASSIFICATION: N

MOLECULE: CC(C)(C)C(=O)CN
CLASSIFICATION: N

MOLECULE: CCCc1c(C(=O)OCC)[nH]c(C(=O)CCC(=O)c2[nH]c(C(=O)OCC)c(CCC)c2C(=O)OCC)c1C(=O)OCC
CLASSIFICATION: N

MOLECULE: Cc1cccc(N=Nc2c(C)nc(N)nc2C)c1C
CLASSIFICATION: N

MOLECULE: CC(C)=CCNc1ncnc2c1ncn2CCC#N
CLASSIFICATION: N

MOLECULE: C1=CCc2cc3c(cc2=C1)C=c1ccccc1=3
CLASSIFICATION: N

MOLECULE: O=C(O)c1ccccc1CC(Cc1ccccc1)C(=O)O (stereo not drawn)
CLASSIFICATION: N

MOLECULE: CC(Br)C1=CC(c2ccccc2)(c2ccccc2)c2ccccc21 (stereo not drawn)
CLASSIFICATION: Y

MOLECULE: CC(=O)NC1CCC2CCCCC2C1 (stereo not drawn)
CLASSIFICATION: N

MOLECULE: CCOC(=O)Oc1ccc(Cl)cc1Cl
CLASSIFICATION: N

MOLECULE: CC(=O)/C=C(/C=N/O)c1ccccc1
CLASSIFICATION: N

MOLECULE: C[N+]1(C)C/C(=C\c2ccc(O)cc2)C(=O)/C(=C/c2ccc(O)cc2)C1
CLASSIFICATION: N

MOLECULE: O=S(=O)(c1ccc(Br)cc1)C(F)(F)F
CLASSIFICATION: N

MOLECULE: COc1ccc(C2C3=C(CCCC3=O)N(c3ccccc3)C3=C2C(=O)CCC3)cc1
CLASSIFICATION: N

MOLECULE: Cc1ccc(S(=O)(=O)OCC2C(COS(=O)(=O)c3ccc(C)cc3)C3CCC2C2C3C3C2C2(C)C(=O)C3(C)C(c3ccccc3)=C2c2ccccc2)cc1 (stereo not drawn)
CLASSIFICATION: N

---

Assay: NCI Yeast Anticancer Drug Screen. Data for the bub3 strain (AID 167)
Settings: S. cerevisiae bub3 mutant strain, at 50.0 µM, stronger effect = higher value
Compounds without any hit were thinned out: in the full panel of roughly 79,000, 15% have a hit.
A collection of molecules and their measured growth inhibition

MOLECULE: COc1cc(C)c2c([N+](=O)[O-])cc([N+](=O)[O-])c(OC)c2n1
growth inhibition [%]: -10.2
//
MOLECULE: CCN(CC)CCCC(C)Nc1ccnc2ccc3nn(C)nc3c12 (configuration not stated)
growth inhibition [%]: -14
//
MOLECULE: CC(=O)NC1CCC2CCCCC2C1 (configuration not stated)
growth inhibition [%]: 32.1
//
MOLECULE: O=C1c2ccc3ccccc3c2C(=O)c2ccc3ccccc3c21
growth inhibition [%]: -12.3
//
MOLECULE: COc1c2c(c(OC)c(C(C)=O)c1OC(=O)c1ccccc1)CCO2
growth inhibition [%]: 0.05
//
MOLECULE: O=C1CCCc2ccc([N+](=O)[O-])c(O)c21
growth inhibition [%]: 9.8
//
MOLECULE: CCOC(=O)N[n+]1ccccc1
growth inhibition [%]: 10.8
//
MOLECULE: NC(=O)NNC/C(Cl)=C(\Cl)C(=O)O
growth inhibition [%]: 5.5
//
MOLECULE: O=C(O)C1CCCCC1C(=O)O.[NH-]C1CCC1.[NH2-].[Pt+2] (configuration not stated)
growth inhibition [%]: 99
//
MOLECULE: CC[N+](C)(CC)CCN1C(=O)CC[C@@]2(C)C1=CC[C@@H]1[C@@H]2CC[C@@]2(C)[C@H]1CC[C@]2(C)O
growth inhibition [%]: 9.7
//
MOLECULE: CCC(CCC(C)C)(SCC(N)=O)C(=O)O (configuration not stated)
growth inhibition [%]: 0.2
//
MOLECULE: COc1ccc(Cc2ccc(OC)cc2)cc1
growth inhibition [%]: 5.15

---

Assay: NCI Yeast Anticancer Drug Screen. Data for the cln2 rad14 strain (AID 165);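 also: 0% = growth equal to vehicle treated cultures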
Details: S. cerevisiae cln2 rad14 strain, at 50.0 µM, stronger effect = higher value
This is part of a sample that, as a whole, favours compounds with a hit. Of some 79,000 tested, about 15% had one in any assay.
OBSERVED PROPERTY: growth inhibition (%)

MOLECULE: O=C(NC1C(=O)NNC1c1cccc([N+](=O)[O-])c1)c1ccccc1 (stereo not given)
OBSERVED PROPERTY: growth inhibition
NUMERIC VALUE: -10.6
//
MOLECULE: CC(C)(C)C1CCC2c3c([nH]c4ccccc34)C3C(=O)N(c4ccc(C#N)cc4)C(=O)C3C2C1 (stereo not given)
OBSERVED PROPERTY: growth inhibition
NUMERIC VALUE: 16.9
//
MOLECULE: CN(C)CCNC(=O)Cn1cc([N+](=O)[O-])c(=O)c2ccccc21
OBSERVED PROPERTY: growth inhibition
NUMERIC VALUE: 18.9
//
MOLECULE: Cc1cc2nc(C(O)C(O)C(O)C(O)c3nc4cc(C)c(C)cc4[nH]3)[nH]c2cc1C (stereo not given)
OBSERVED PROPERTY: growth inhibition
NUMERIC VALUE: -1.2
//
MOLECULE: CC1CC(c2ccccc2)Nc2nc3ccccc3n21 (stereo not given)
OBSERVED PROPERTY: growth inhibition
NUMERIC VALUE: 7.95
//
MOLECULE: O=C(OC1COC(n2c(=O)oc3cc([N+](=O)[O-])c([N+](=O)[O-])cc32)C(OC(=O)c2ccccc2)C1OC(=O)c1ccccc1)c1ccccc1 (stereo not given)
OBSERVED PROPERTY: growth inhibition
NUMERIC VALUE: -9.15
//
MOLECULE: CN1/C(=C\N=O)C(C)(C)N(O)C1(C)C
OBSERVED PROPERTY: growth inhibition
NUMERIC VALUE: 17.2
//
MOLECULE: [S-]c1n[n+](-c2ccccc2)c(-c2ccc(Cl)cc2)s1
OBSERVED PROPERTY: growth inhibition
NUMERIC VALUE: -3.65
//
MOLECULE: O=C(Nc1cccc2ccccc12)OCCBr
OBSERVED PROPERTY: growth inhibition
NUMERIC VALUE: 7
//
MOLECULE: CN(C)c1ccccc1CC(=O)Nc1ccccc1
OBSERVED PROPERTY: growth inhibition
NUMERIC VALUE: -21.8
